Just for reference, patent US20140065163A1 is where these values come from.

tested.on: human GM-CSF I117 (human, UniProt P04141 18-144)
Sequence (P04141 18-144 limits assumed): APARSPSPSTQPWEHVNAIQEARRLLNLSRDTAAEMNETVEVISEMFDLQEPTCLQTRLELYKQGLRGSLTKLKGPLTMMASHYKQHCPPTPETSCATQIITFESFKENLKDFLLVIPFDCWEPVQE
assay.text: cell-based or functional assay
metric.name: Fold improvement of humanized parental 4K21 on I117 (IC50, TF-1 proliferation)

binder	meas.value
anti-GM-CSF 4K21 hIgG1K antibody (MSB0010259), recombinant chimeric 4K21 (antibody, V domains shown, Murine variable domains fused to human constant IgG1 heavy chain and kappa light chain domains) VH: EVQLVESGGGLVKSGGSLKLSCAASGFAFSAYDMSWVRQTPEKRLELVAYISSGGSSFYYPDTVKGRFTISRDNAKNTLYLQMSSLKSEDTAMYYCTRHLGFDYWGQGTTLTVSS VL: DVVMTQTPLSLPVSLGDQASISCRSSQSLVNSNGNTYLHWFLQKPGQSPKLLIYKVSNRFSGVPDRFSGSGSGTDFTLKISRVEAEDLGVYFCSQSTHVPPTFGGGTKLEIK	0.9 fold
MSB0010602 4K21 (4K21 hVH S55K-T62S hVL S27eY-N28I-H34S-N53R-H93Y) (antibody, V domains shown, IgG) VH: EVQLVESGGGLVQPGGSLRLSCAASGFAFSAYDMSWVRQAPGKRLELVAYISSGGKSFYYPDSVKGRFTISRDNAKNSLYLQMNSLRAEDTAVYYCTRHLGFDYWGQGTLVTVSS VL: DIVMTQSPLSLPVTPGEPASISCRSSQSLVNYIGNTYLSWYLQKPGQSPQLLIYKVSRRFSGVPDRFSGSGSGTDFTLKISRVEAEDVGVYYCSQSTYVPPTFGQGTKVEIK	6 fold
MSB0010595 4K21 (4K21 hVH S56V-T62S hVL S27eY-N28I-H34S-N53R-H93Y) (antibody, V domains shown) VH: EVQLVESGGGLVQPGGSLRLSCAASGFAFSAYDMSWVRQAPGKRLELVAYISSGGSVFYYPDSVKGRFTISRDNAKNSLYLQMNSLRAEDTAVYYCTRHLGFDYWGQGTLVTVSS VL: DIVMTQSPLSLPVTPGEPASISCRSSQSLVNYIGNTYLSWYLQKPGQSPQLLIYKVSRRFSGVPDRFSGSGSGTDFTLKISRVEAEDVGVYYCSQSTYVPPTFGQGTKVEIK	3.2 fold
MSB0010599 4K21 (4K21 hVH S55R-T62S hVL N28I-H34S-N53R-H93Y) (antibody, V domains shown, IgG) VH: EVQLVESGGGLVQPGGSLRLSCAASGFAFSAYDMSWVRQAPGKRLELVAYISSGGRSFYYPDSVKGRFTISRDNAKNSLYLQMNSLRAEDTAVYYCTRHLGFDYWGQGTLVTVSS VL: DIVMTQSPLSLPVTPGEPASISCRSSQSLVNSIGNTYLSWYLQKPGQSPQLLIYKVSRRFSGVPDRFSGSGSGTDFTLKISRVEAEDVGVYYCSQSTYVPPTFGQGTKVEIK	6.7 fold
humanized parental 4K21 hVH hVL + H93Y (MS100305-A) (antibody, V domains shown) VH: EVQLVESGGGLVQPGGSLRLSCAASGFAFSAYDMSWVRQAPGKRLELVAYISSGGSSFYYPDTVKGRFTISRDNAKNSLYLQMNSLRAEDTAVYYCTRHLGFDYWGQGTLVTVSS VL: DIVMTQSPLSLPVTPGEPASISCRSSQSLVNSNGNTYLHWYLQKPGQSPQLLIYKVSNRFSGVPDRFSGSGSGTDFTLKISRVEAEDVGVYYCSQSTYVPPTFGQGTKVEIK	4.1 fold
